Target: T1, human FcRn/b2M (human, UniProt P61769 21-119, biotinylated)
T1 construct: bought recombinant biotinylated protein (ACRO FCM-H82W4 or Immunitrack ITF01); also called hFcRn; hFcRn/hb2M
T1 sequence (chain, as listed by the source limits assumed, chain 1 of 2): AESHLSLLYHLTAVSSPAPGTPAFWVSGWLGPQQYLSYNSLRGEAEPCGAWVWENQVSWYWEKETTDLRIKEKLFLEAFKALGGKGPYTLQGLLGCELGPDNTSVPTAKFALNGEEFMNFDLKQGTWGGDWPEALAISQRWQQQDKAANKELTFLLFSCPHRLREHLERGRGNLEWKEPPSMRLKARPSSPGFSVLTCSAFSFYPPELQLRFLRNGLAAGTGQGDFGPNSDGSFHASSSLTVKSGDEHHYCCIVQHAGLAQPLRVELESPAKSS
T1 sequence (P61769 21-119 limits assumed, chain 2 of 2): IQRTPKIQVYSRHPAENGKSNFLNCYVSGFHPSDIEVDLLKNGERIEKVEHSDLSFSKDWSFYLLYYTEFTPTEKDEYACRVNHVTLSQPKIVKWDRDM
Experiment: SPR off-rate; pH 7.4 vs pH 6.0;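 also: surface plasmon resonance with diluted periplasmic extracts flowed over ligand surfaces, 120 s association and 600–3600 s dissociation at 25 °C, running buffer containing 150 mM NaCl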
Known kd ratio pH 7.4/6.0 of a selection of binders
readout name: kd ratio pH 7.4/6.0

INSERT INTO assay_data (binder, experimental_value) VALUES
  ('T0263018B11 T28W (VHH, name in Kabat numbering, FLAG3-His6 tagged) VHH: EVQLVESGGGVVQPGGSLRLSCAASGFWFSSYAMYWVRQAPGKGLEWVSAISSGGGSTDYADSVKGRFTISRDNSKNTLYLQMNSLRPEDTALYYCAADTLYTSLTWYSYWGQGTLVTVSS', 59),
  ('T0263018B11 D58Y (VHH, name in Kabat numbering, FLAG3-His6 tagged) VHH: EVQLVESGGGVVQPGGSLRLSCAASGFTFSSYAMYWVRQAPGKGLEWVSAISSGGGSTYYADSVKGRFTISRDNSKNTLYLQMNSLRPEDTALYYCAADTLYTSLTWYSYWGQGTLVTVSS', 9),
  ('T0263018B11 T96V (VHH, name in Kabat numbering, FLAG3-His6 tagged) VHH: EVQLVESGGGVVQPGGSLRLSCAASGFTFSSYAMYWVRQAPGKGLEWVSAISSGGGSTDYADSVKGRFTISRDNSKNTLYLQMNSLRPEDTALYYCAADVLYTSLTWYSYWGQGTLVTVSS', 45),
  ('T0263018B11 S52aT (VHH, name in Kabat numbering, FLAG3-His6 tagged) VHH: EVQLVESGGGVVQPGGSLRLSCAASGFTFSSYAMYWVRQAPGKGLEWVSAISTGGGSTDYADSVKGRFTISRDNSKNTLYLQMNSLRPEDTALYYCAADTLYTSLTWYSYWGQGTLVTVSS', 39),
  ('T0263018B11 W100cV (VHH, name in Kabat numbering, FLAG3-His6 tagged) VHH: EVQLVESGGGVVQPGGSLRLSCAASGFTFSSYAMYWVRQAPGKGLEWVSAISSGGGSTDYADSVKGRFTISRDNSKNTLYLQMNSLRPEDTALYYCAADTLYTSLTVYSYWGQGTLVTVSS', 61),
  ('T0263018B11 S31N (VHH, name in Kabat numbering, FLAG3-His6 tagged) VHH: EVQLVESGGGVVQPGGSLRLSCAASGFTFSNYAMYWVRQAPGKGLEWVSAISSGGGSTDYADSVKGRFTISRDNSKNTLYLQMNSLRPEDTALYYCAADTLYTSLTWYSYWGQGTLVTVSS', 50),
  ('T0263018B11 S30T (VHH, name in Kabat numbering, FLAG3-His6 tagged) VHH: EVQLVESGGGVVQPGGSLRLSCAASGFTFTSYAMYWVRQAPGKGLEWVSAISSGGGSTDYADSVKGRFTISRDNSKNTLYLQMNSLRPEDTALYYCAADTLYTSLTWYSYWGQGTLVTVSS', 37),
  ('T0263018B11 S52aP (VHH, name in Kabat numbering, FLAG3-His6 tagged) VHH: EVQLVESGGGVVQPGGSLRLSCAASGFTFSSYAMYWVRQAPGKGLEWVSAISPGGGSTDYADSVKGRFTISRDNSKNTLYLQMNSLRPEDTALYYCAADTLYTSLTWYSYWGQGTLVTVSS', 53);
